Each recorded value in this set is attributed to patent US8022225B2.

target: human Edg-1(S1P1) (Homo sapiens); construct: expressed in transfected cells; host or cells: HEK-293; experiment: Cell system binding test: inhibition of [3H]-S1P binding to Edg-1(S1P1) gene transferred HEK-293 cells; details: 10 μM compound, [3H]-S1P 10 nM, read-out: Cell system binding test % inhibition (10 μM)
Sequence (P21453 whole entry): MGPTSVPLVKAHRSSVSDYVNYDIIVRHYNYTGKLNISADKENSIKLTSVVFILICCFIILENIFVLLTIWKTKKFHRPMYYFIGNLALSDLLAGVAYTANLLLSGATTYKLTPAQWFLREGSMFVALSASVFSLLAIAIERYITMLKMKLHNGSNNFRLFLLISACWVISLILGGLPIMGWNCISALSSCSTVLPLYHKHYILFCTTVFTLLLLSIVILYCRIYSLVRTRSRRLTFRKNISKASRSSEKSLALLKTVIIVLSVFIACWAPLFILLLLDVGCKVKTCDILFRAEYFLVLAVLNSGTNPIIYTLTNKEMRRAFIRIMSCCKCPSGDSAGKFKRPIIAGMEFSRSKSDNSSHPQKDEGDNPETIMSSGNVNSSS
Reported inhibition at 10 µM by item:
State the answer as a number, implicitly in %.

Below, 4 compounds whose answers are already recorded.
[[record]]
compound = "CCn1c(SCCCCCCN(C)C)nnc1[C@@H](C)NS(=O)(=O)c1ccc(Cl)cc1"
test_target = "human Edg-1(S1P1) (Homo sapiens)"
reading = 84

[[record]]
compound = "CCn1c(OC)nnc1[C@@H](C)NS(=O)(=O)c1ccc(I)cc1"
test_target = "human Edg-1(S1P1) (Homo sapiens)"
reading = 99.1

[[record]]
compound = "CCCCCCCCSc1nnc([C@@H](C)NS(=O)(=O)c2ccc(Cl)cc2)n1CC"
test_target = "human Edg-1(S1P1) (Homo sapiens)"
reading = 91.9

[[record]]
compound = "CCn1c(SCCCc2ccncc2)nnc1[C@@H](C)NS(=O)(=O)c1ccc(Cl)cc1"
test_target = "human Edg-1(S1P1) (Homo sapiens)"
reading = 93


Incoming: Recorded inhibition at 10 µM of CCn1c([C@@H](C)NS(=O)(=O)c2ccc(Cl)cc2)nnc1[S+](C)[O-] (some centres unmarked) , please.
Outgoing: 48.9

Incoming: Which inhibition at 10 µM is reported for this compound? "CCn1c(OC)nnc1[C@@H](C)NS(=O)(=O)c1ccc(Cl)c(S(N)(=O)=O)c1"
Outgoing: 27

Incoming: // returns reported inhibition at 10 µM for input "CCn1c(OC)nnc1[C@@H](C)NS(=O)(=O)CC1CCCCC1"
Outgoing: 92.8

Incoming: Looking for the measured inhibition at 10 µM of "C=CCSc1nnc([C@@H](Cc2ccccc2)NS(=O)(=O)c2ccc(Cl)cc2)n1C1CCCC1" , can you help?
Outgoing: 40.4

Incoming: Look up inhibition at 10 µM for this compound: C=CCSc1nnc(C(CC)NS(=O)(=O)c2ccc(Cl)cc2)n1C (centres unmarked)
Outgoing: 71.5

Incoming: Item "CCn1c(OCc2ccccc2)nnc1[C@@H](C)NS(=O)(=O)c1ccc(Cl)cc1" has what recorded inhibition at 10 µM?
Outgoing: 97.1

Incoming: Item "CCn1c(OC)nnc1[C@@H](C)NS(=O)(=O)c1ccccc1" has what recorded inhibition at 10 µM?
Outgoing: 90.7

Incoming: So what's the measured inhibition at 10 µM for this one? "CCCOc1nnc([C@@H](C)NS(=O)(=O)c2ccc(C)cc2)n1CC"
Outgoing: 106

Incoming: What does the data say about its inhibition at 10 µM? Entry: "CCn1c(OC)nnc1[C@@H](C)NS(=O)(=O)c1ccccc1F"
Outgoing: 91

Incoming: Name the recorded inhibition at 10 µM for "CCn1c(OC)nnc1[C@@H](C)NS(=O)(=O)c1cc(F)c(F)cc1F" .
Outgoing: 98.7

* * *

inhibition at 10 µM values, listed per item
molecular target: human Edg-1(S1P1) (Homo sapiens); construct: expressed in transfected cells; host or cells: HEK-293; assay: Membrane system binding test: inhibition of [33P]-S1P binding to the membrane fraction of Edg-1(S1P1) gene transferred HEK-293 cells; conditions: 10 μM compound; [33P]-S1P 0.1 nM; membrane fraction of Edg-1(S1P1) gene transferred HEK-293 cells; read-out: Membrane system binding test % inhibition (10 μM)

Sample records with inhibition at 10 µM:
[[record]]
molecule = "CCn1c(OC)nnc1[C@@H](C)NS(=O)(=O)c1ccc2c(c1)OCCN2C [Compound 344]"
observation_type = "inhibition at 10 µM"
reading = "65.8%"

[[record]]
molecule = "CCCCS(=O)(=O)N[C@H](C)c1nnc(OC)n1CC [Compound 202]"
observation_type = "inhibition at 10 µM"
reading = "60.3%"

[[record]]
molecule = "CCn1c(SC/C=C/c2ccccc2)nnc1[C@@H](C)NS(=O)(=O)c1ccc(Cl)cc1 [Compound 38]"
observation_type = "inhibition at 10 µM"
reading = "81%"

[[record]]
molecule = "CCn1c(SCC2CCN(Cc3ccccc3)CC2)nnc1[C@@H](C)NS(=O)(=O)c1ccc(Cl)cc1 [Compound 72]"
observation_type = "inhibition at 10 µM"
reading = "95.8%"

[[record]]
molecule = "CCn1c(OC)nnc1[C@@H](C)NS(=O)(=O)c1cc(C)cc(C)c1 [Compound 308]"
observation_type = "inhibition at 10 µM"
reading = "68.1%"

[[record]]
molecule = "CCOc1nnc([C@@H](C)NS(=O)(=O)c2ccc3nsnc3c2)n1CC [Compound 431]"
observation_type = "inhibition at 10 µM"
reading = "94.6%"

[[record]]
molecule = "C/C=C/CSc1nnc([C@@H](C)NS(=O)(=O)c2ccc(Cl)cc2)n1CC [Compound 21]"
observation_type = "inhibition at 10 µM"
reading = "74.8%"

[[record]]
molecule = "CCn1c(OC)nnc1[C@@H](C)NS(=O)(=O)c1cccc(OC(F)F)c1 [Compound 310]"
observation_type = "inhibition at 10 µM"
reading = "78.8%"


Pending molecule:
Incoming: Reported inhibition at 10 µM for CCc1ccc(S(=O)(=O)N[C@H](C)c2nnc(OC)n2CC)cc1 [Compound 222] : what is it?
Outgoing: 71.8%
